# credit: patent US20250170248A1

Reported Dmax values follow for various molecules
Biological target: SMARCA4 (Homo sapiens, UniProt P51532)
Construct: SMARCA2/SMARCA4 protein degradation selectivity in MV4-11 cells; endogenous in cells; host or cells: MV4-11
Sequence (P51532 whole entry): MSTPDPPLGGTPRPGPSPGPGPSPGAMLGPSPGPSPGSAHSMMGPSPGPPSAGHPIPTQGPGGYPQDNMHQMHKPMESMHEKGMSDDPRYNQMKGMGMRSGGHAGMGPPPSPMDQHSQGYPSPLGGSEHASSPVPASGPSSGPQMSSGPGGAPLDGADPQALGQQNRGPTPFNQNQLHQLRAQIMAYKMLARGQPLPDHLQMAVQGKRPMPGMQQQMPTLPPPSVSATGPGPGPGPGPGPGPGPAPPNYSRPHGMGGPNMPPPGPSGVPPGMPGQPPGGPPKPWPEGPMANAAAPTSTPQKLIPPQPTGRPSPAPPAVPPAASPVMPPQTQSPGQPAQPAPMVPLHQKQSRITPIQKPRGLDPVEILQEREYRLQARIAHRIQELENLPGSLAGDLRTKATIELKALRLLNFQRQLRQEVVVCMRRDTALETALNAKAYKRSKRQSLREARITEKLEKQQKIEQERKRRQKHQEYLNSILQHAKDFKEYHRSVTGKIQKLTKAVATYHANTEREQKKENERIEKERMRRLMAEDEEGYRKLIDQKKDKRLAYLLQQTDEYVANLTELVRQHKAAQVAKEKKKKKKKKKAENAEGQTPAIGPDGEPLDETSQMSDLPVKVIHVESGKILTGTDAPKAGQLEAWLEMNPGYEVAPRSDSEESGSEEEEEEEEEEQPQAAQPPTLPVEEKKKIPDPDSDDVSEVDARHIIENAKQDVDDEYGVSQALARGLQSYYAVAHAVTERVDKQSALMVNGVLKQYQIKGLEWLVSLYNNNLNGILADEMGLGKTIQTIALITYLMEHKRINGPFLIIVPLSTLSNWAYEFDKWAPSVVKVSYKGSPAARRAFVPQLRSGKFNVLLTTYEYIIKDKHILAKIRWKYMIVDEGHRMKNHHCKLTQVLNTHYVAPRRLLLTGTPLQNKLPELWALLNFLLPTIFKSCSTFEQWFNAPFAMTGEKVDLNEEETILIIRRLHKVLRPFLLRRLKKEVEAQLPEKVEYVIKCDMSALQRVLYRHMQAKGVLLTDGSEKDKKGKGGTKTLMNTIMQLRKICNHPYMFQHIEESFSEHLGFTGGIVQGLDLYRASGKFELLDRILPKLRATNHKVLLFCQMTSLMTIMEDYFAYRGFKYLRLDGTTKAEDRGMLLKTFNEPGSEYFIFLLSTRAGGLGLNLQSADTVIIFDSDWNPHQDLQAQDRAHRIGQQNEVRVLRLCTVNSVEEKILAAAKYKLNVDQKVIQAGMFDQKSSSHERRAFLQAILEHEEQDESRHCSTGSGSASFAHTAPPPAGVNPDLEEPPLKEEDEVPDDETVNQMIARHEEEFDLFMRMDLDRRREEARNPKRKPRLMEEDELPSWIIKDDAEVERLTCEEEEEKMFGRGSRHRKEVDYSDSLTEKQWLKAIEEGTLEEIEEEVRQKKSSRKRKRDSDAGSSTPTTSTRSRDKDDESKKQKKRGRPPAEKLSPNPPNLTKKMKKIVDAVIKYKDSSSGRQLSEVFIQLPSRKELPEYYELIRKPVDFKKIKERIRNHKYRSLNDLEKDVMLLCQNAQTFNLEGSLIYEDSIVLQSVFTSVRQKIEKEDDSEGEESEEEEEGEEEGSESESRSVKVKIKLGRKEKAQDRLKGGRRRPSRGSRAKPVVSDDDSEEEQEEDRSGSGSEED
Test: SMARCA4 Western blot degradation in MV4-11 cells
Format: cell-based
Settings: MV4-11, MV4-11 cells, 24 h; read-out: SMARCA4 MSD MV411 degradation 24 h: average Dmax %
Procedure: Example 11. SMARCA2 and SMARCA4 Western Blot MV4-11 Degradation Cells were seeded into 6-well plates (MV4-11:4×10^6 cells/well/1 ml) and 1 ml of 2× compound solution was added into the well to make the final concentration and the plates were mixed well and incubated for 24 hours (No cytotoxicity was observed). The cell were collected with media and spun at 3000 rpm for 5 minutes. […] The membrane was washed three times with 5 minutes each and lastly the LiCOR was read. […]

| molecule | Dmax |
| --- | --- |
| C#Cc1ccc(CNC(=O)[C@@H]2C[C@@H](O)CN2C(=O)[C@@H](NC(=O)[C@H]2CCC3(CC2)C[C@H](N2CCC(N4CCC(N5CCN6c7cc(-c8ccccc8O)nnc7NC[C@H]6C5)CC4)CC2)C3)C(C)(C)C)c(OC)c1 (single isomer, unassigned) | 50 to 70% |
| CC#Cc1ccc(CNC(=O)[C@@H]2C[C@@H](O)CN2C(=O)[C@@H](NC(=O)[C@H]2CCC3(CC2)C[C@H](N2CCC(c4cnc(N5CCN6c7cc(-c8ccccc8O)nnc7NC[C@H]6C5)nc4)CC2)C3)C(C)(C)C)cc1 (single isomer, unassigned) | 70 to 90% |
| C#Cc1ccc(CNC(=O)[C@@H]2C[C@@H](O)CN2C(=O)[C@@H](NC(=O)[C@H]2CC3(C2)C[C@H](N2CCC(N4CCC(N5CCN6c7cc(-c8ccccc8O)nnc7NC[C@H]6C5)CC4)CC2)C3)C(C)(C)C)cc1 (single isomer, unassigned) | 50 to 70% |

Now let's try a different one.
Inquiry: I am curious: what Dmax value has been reported for C#Cc1ccc(CNC(=O)[C@@H]2C[C@@H](O)CN2C(=O)[C@@H](NC(=O)N2CC3(CC(N4CCC(c5cnc(N6CCc7[nH]c8nnc(-c9ccccc9O)cc8c7[C@H]6C)nc5)CC4)C3)C2)C(C)(C)C)c(O)c1 ?
Reply text: > 90%

---

Target: SMARCA2 (Homo sapiens)
Assay: MSD SMARCA2 degradation in A549 cell line
Type: cell-based
Details: A549, A549 cells, 24 h
The following molecules are listed with their measured Dmax values.

Record excerpt, results attached:
| molecule | resultType | result |
| --- | --- | --- |
| C#Cc1ccc(CNC(=O)[C@@H]2C[C@@H](O)CN2C(=O)[C@@H](NC(=O)C2CCC3(CC2)CC(N2CCC(N4CC(C(=O)N5CCN6c7cc(-c8ccccc8O)nnc7NC[C@H]6C5)C4)CC2)C3)C(C)(C)C)cc1 (stereo partly shown) | Dmax | > 90% |
| C#Cc1ccc([C@H](C)NC(=O)[C@@H]2C[C@@H](O)CN2C(=O)[C@@H](NC(=O)N2CC3(CC(N4CCC(c5cnc(N6CCc7[nH]c8nnc(-c9ccccc9O)cc8c7[C@H]6C)nc5)CC4)C3)C2)C(C)(C)C)cc1 | Dmax | > 90% |
| C#Cc1ccc(CNC(=O)[C@@H]2C[C@@H](O)CN2C(=O)[C@@H](NC(=O)[C@H]2CC3(C2)C[C@H](N2CCN(C(=O)CN4CCN5c6cc(-c7ccccc7O)nnc6NC[C@H]5C4)CC2)C3)C(C)(C)C)cc1 (single isomer, unassigned) | Dmax | > 90% |

As a next step, examine the molecule that follows.
Inquiry: // query Dmax value for entry C#Cc1ccc(CNC(=O)[C@@H]2C[C@@H](O)CN2C(=O)[C@@H](NC(=O)N2CC3(CC(N4CCC(N5CCC(N6CCN7c8cc(-c9ccccc9O)nnc8NC[C@H]7C6)CC5)CC4)C3)C2)C(C)(C)C)cc1
Reply text: > 90%

---

Biological target: SMARCA2 (Homo sapiens, UniProt P51531)
Sequence (P51531 whole entry): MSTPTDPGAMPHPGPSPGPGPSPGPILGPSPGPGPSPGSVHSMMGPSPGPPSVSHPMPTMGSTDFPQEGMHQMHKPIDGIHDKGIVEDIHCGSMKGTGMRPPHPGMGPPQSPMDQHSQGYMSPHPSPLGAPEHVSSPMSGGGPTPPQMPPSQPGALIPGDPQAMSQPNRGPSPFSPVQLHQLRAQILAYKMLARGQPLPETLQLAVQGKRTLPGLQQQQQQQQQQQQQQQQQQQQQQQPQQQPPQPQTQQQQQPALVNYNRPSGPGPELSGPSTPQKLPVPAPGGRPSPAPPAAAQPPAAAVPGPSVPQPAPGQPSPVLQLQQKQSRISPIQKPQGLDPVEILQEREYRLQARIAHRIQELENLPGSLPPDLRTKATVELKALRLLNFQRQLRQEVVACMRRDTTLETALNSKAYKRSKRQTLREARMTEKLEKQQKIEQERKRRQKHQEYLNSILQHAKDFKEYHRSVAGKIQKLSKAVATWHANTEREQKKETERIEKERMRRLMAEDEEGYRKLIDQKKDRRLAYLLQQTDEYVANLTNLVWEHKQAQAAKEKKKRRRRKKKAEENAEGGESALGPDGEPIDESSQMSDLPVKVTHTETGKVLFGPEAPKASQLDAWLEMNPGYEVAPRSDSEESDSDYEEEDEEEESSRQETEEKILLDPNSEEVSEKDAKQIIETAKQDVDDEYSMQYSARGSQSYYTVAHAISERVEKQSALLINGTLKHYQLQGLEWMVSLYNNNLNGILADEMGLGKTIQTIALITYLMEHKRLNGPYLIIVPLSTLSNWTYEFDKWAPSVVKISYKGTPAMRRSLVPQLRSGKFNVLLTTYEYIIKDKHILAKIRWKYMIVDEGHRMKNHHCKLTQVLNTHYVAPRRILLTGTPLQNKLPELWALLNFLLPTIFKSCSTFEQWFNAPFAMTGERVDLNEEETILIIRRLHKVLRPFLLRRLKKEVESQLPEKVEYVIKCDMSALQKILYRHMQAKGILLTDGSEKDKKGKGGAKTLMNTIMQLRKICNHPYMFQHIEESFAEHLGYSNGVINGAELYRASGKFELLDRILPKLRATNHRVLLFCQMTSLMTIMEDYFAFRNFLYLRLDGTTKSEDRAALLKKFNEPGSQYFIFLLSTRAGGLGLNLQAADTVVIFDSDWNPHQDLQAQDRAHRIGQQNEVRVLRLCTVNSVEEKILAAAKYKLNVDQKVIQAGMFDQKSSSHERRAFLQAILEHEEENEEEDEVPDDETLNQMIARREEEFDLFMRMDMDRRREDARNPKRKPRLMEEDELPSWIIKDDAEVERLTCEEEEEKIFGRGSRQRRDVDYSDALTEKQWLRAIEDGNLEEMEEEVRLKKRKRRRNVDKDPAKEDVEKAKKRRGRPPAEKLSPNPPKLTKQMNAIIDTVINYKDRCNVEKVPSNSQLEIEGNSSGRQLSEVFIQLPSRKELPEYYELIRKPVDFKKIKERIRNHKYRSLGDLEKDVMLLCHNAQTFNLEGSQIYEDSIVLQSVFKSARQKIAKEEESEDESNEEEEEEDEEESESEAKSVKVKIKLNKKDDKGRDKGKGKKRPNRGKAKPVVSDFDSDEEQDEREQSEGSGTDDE
Assay: MSD SMARCA2 degradation in A549 cell line
Assay type: cell-based
Conditions: A549 cells, 24 h, read-out: SMARCA2 MSD A549 degradation 24 h: Average external-Abs DC50
Items are presented alongside their recorded DC50.

The examples below pair each entry with its known result.
| compound | DC50 |
| --- | --- |
| C#Cc1ccc(CNC(=O)[C@@H]2C[C@@H](O)CN2C(=O)[C@@H](NC(=O)N2CC3(CC(N4CCC(N5CCC(N6CCc7[nH]c8nnc(-c9ccccc9O)cc8c7[C@H]6C)C5)CC4)C3)C2)C(C)(C)C)cc1 (mixture of isomers) | > 100 nM |
| C#Cc1ccc(CNC(=O)[C@@H]2C[C@@H](O)CN2C(=O)[C@@H](NC(=O)N2CC3(CC(N4C[C@H]5CN(c6cnc(N7CCc8[nH]c9nnc(-c%10ccccc%10O)cc9c8[C@@H]7C)nc6)C[C@H]5C4)C3)C2)C(C)(C)C)cc1 | > 100 nM |

Inquiry: Request the reported DC50 associated with C#Cc1ccc(CNC(=O)[C@@H]2C[C@@H](O)CN2C(=O)[C@@H](NC(=O)[C@H]2CCC3(CC2)C[C@H](N2CCC(c4cnc(N5CCN6c7cc(-c8ccccc8O)nnc7NC[C@H]6C5)nc4)CC2)C3)C(C)(C)C)c(Cl)c1 (single isomer, unassigned) [I-98]
Reply text: 10 to 50 nM

Inquiry: Dear colleague, I am looking for the recorded DC50 of the following compound: C#Cc1ccc(CNC(=O)[C@@H]2C[C@@H](O)CN2C(=O)[C@@H](NC(=O)[C@H]2CCC3(CC2)C[C@H](N2CCC(c4ccc(N5CCN6c7cc(-c8ccccc8O)nnc7NC[C@H]6C5)nc4)CC2)C3)C(C)(C)C)cc1 (single isomer, unassigned) [I-155]
Reply text: 10 to 50 nM

---

Target: SMARCA2 (Homo sapiens, UniProt P51531)
Assay: SMARCA2 Western blot degradation in MV4-11 cells
Format: cell-based
Set-up: SMARCA2/SMARCA4 protein degradation selectivity in MV4-11 cells; endogenous in cells; host or cells: MV4-11
Settings: MV4-11, MV4-11 cells, 24 h; read-out: SMARCA2 MSD MV411 degradation 24 h: average Dmax %
Catalogue of Dmax values

Known results for compounds:
| compound | Dmax |
| --- | --- |
| C#Cc1ccc([C@H](C)NC(=O)[C@@H]2C[C@@H](O)CN2C(=O)[C@@H](c2cc(OCCN3CCN4c5cc(-c6ccccc6O)nnc5NC[C@H]4C3)no2)C(C)C)cc1 (single isomer, unassigned) [I-273] | > 90% |
| C#Cc1ccc(CNC(=O)[C@@H]2C[C@@H](O)CN2C(=O)[C@@H](NC(=O)N2CCC(C(=O)N3CCC(N4CCC(N5CCc6[nH]c7nnc(-c8ccccc8O)cc7c6[C@H]5C)CC4)CC3)CC2)C(C)(C)C)cc1 [I-192] | < 50% |
| C#Cc1ccc([C@H](C)NC(=O)[C@@H]2C[C@@H](O)CN2C(=O)[C@@H](OC(=O)N2CC3(CC(N4CCC(c5cnc(N6CCc7[nH]c8nnc(-c9ccccc9O)cc8c7[C@H]6C)nc5)CC4)C3)C2)C(C)(C)C)cc1 [I-150] | 70 to 90% |
| Cc1ncsc1-c1ccc(CNC(=O)[C@@H]2C[C@@H](O)CN2C(=O)C(c2cc(OC[C@H]3CC[C@@H](N4CCC(c5cnc(N6CCc7[nH]c8nnc(-c9ccccc9O)cc8c7[C@@H]6C)nc5)CC4)CC3)no2)C(C)C)cc1 (single isomer, unassigned) [I-16] | > 90% |
| C#Cc1ccc([C@H](C)NC(=O)[C@@H]2C[C@@H](O)CN2C(=O)[C@H](c2cc(OCCN3CCN4c5cc(-c6ccccc6O)nnc5NC[C@H]4C3)no2)C(C)C)cc1 (single isomer, unassigned) [I-272] | 50 to 70% |

Inquiry: Notebook: pull reported Dmax for SMARCA2 (Homo sapiens, UniProt P51531), entry C#Cc1ccc(CNC(=O)[C@@H]2C[C@@H](O)CN2C(=O)[C@@H](NC(=O)N2CCN(CC3CCN([C@H]4CC[C@H](N5CCc6[nH]c7nnc(-c8ccccc8O)cc7c6[C@H]5C)CC4)CC3)CC2)C(C)(C)C)cc1 [I-204]
Reply text: < 50%

Inquiry: Which Dmax is reported with SMARCA2 (Homo sapiens, UniProt P51531) for this entry: C#Cc1ccc(CNC(=O)[C@@H]2C[C@@H](O)CN2C(=O)[C@@H](NC(=O)N2CC3(CC(N4CCN([C@H]5CC[C@@H](N6CCc7[nH]c8nnc(-c9ccccc9O)cc8c7[C@H]6C)CC5)CC4)C3)C2)C(C)(C)C)cc1 [I-187] ?
Reply text: 70 to 90%

Inquiry: Test system SMARCA2 (Homo sapiens, UniProt P51531); read-out Dmax; what value for C#Cc1ccc(CNC(=O)[C@@H]2C[C@@H](O)CN2C(=O)[C@@H](NC(=O)N2CCC(N3CCC(N4CC5(CC(N6CCc7[nH]c8nnc(-c9ccccc9O)cc8c7[C@H]6C)C5)C4)CC3)CC2)C(C)(C)C)cc1 [I-208] ?
Reply text: < 50%

Inquiry: API: value(readout= Dmax, system= SMARCA2 (Homo sapiens, UniProt P51531), query= C#Cc1ccc(CNC(=O)[C@@H]2C[C@@H](O)CN2C(=O)[C@@H](NC(=O)N2CC3(CC(c4cnc(N5CCC(N6CCN7c8cc(-c9ccccc9O)nnc8NC[C@H]7C6)CC5)nc4)C3)C2)C(C)(C)C)cc1 [I-276] )
Reply text: > 90%
